- EXPERIMENTAL_DETAILS: Acute toxicity by oral administration on CDF1 mouse
- CONDITION_SUMMARY: in vivo
ASSAY_METRIC: LD50 (mg/kg)

{"columns": ["INPUT_SMILES", "READOUT_UNIT", "NUMERIC_VALUE"],
 "data": [
  ["CC(=O)[C@]1(O)Cc2c(O)c3c(c(O)c2[C@@H](O[C@H]2C[C@H](N4CCOCC4)[C@H](O)[C@H](C)O2)C1)C(=O)c1c(O)cccc1C3=O", "mg/kg", 1.56]
]}

Origin of the recorded values: patent US4374980A
